Target: T1, EsCas13d, nuclease-dead (Eubacterium siraeum, UniProt B0MS50, R295A;H300A;R849A;H854A)
T1 sequence: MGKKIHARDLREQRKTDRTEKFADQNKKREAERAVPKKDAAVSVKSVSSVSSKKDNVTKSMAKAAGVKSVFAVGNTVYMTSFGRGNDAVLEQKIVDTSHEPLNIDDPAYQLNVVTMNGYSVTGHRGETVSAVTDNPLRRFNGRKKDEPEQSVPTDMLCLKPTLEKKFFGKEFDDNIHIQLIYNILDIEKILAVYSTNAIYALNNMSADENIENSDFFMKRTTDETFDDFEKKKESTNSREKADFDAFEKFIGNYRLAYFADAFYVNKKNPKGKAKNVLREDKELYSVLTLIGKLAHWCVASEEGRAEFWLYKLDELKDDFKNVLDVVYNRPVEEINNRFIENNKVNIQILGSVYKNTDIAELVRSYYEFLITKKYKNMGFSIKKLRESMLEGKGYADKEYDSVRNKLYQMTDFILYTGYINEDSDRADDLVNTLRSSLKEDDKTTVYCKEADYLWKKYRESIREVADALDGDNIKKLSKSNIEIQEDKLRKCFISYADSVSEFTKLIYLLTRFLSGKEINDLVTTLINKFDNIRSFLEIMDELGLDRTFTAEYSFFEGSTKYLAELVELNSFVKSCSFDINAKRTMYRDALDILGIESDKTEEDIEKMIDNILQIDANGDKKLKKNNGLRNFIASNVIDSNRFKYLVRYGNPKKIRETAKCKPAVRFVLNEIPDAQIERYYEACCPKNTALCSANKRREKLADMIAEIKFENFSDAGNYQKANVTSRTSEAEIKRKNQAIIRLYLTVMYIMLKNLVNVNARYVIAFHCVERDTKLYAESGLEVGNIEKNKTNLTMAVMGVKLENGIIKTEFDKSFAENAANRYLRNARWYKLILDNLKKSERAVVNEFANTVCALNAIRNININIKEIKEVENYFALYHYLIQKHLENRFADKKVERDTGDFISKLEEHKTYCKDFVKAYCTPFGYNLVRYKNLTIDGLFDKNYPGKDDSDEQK
Assay: crRNA (strand 1, pre-loaded); Mg2+; 40 mM Tris-HCl pH 7.5, 150 mM NaCl, 6 mM MgCl2, 1 mM DTT, 0.1% Tween-20, 0.2 mg/ml BSA; 25 C; 10 min per concentration, then washed
Conditions: tags: His6-TwinStrep-SUMO cleaved; N-terminal SNAP kept (SNAP-Surface 488); label: 3' end held by stalled T7 RNA polymerase
Each entry below carries its reported Kd.
Reply with just the number (in nM).

Reference set, count: 3
{"BINDER": "target 1 G5U,U8C (mixed) RNA 1: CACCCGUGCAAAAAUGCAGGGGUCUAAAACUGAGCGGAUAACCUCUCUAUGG RNA 2: GGGAAUGGAUCCACAUCUACGAAUUCGUACCAUAGAGAGGUUACCCUCUCACCGAGAUCGGAAGAGCACACGU", "UNIT OF MEASURE": "nM", "RECORDED MEASUREMENT": 57}
{"BINDER": "target 1 insA 3' of 22,insU 3' of 6 (mixed) RNA 1: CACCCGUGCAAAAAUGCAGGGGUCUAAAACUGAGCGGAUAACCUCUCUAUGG RNA 2: GGGAAUGGAUCCACAUCUACGAAUUCGUACACAUAGAGAGGUUAUCCUGCUCACCGAGAUCGGAAGAGCACACGU", "UNIT OF MEASURE": "nM", "RECORDED MEASUREMENT": 13.6}
{"BINDER": "target 1 insA 3' of 19,insA 3' of 6 (mixed) RNA 1: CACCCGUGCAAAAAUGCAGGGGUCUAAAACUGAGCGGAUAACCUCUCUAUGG RNA 2: GGGAAUGGAUCCACAUCUACGAAUUCGUACCAUAAGAGAGGUUAUCCAGCUCACCGAGAUCGGAAGAGCACACGU", "UNIT OF MEASURE": "nM", "RECORDED MEASUREMENT": 23.2}

Could you now consider this next binder?
Measured Kd, target 1 MT 5'PFS GAC 3'PFS UGU (mixed) RNA 1: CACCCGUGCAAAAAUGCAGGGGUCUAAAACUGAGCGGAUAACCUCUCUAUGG RNA 2: GGGAAUGGAUCCACAUCUACGAAUUCGACCCAUAGAGAGGUUAUCCGCUCAUGUAGAUCGGAAGAGCACACGU : 41.5
